Below: a set of entries, each annotated with reported IC50.
target entity: purified human C5 (Homo sapiens, UniProt P01031)
Sequence (P01031 19-1676): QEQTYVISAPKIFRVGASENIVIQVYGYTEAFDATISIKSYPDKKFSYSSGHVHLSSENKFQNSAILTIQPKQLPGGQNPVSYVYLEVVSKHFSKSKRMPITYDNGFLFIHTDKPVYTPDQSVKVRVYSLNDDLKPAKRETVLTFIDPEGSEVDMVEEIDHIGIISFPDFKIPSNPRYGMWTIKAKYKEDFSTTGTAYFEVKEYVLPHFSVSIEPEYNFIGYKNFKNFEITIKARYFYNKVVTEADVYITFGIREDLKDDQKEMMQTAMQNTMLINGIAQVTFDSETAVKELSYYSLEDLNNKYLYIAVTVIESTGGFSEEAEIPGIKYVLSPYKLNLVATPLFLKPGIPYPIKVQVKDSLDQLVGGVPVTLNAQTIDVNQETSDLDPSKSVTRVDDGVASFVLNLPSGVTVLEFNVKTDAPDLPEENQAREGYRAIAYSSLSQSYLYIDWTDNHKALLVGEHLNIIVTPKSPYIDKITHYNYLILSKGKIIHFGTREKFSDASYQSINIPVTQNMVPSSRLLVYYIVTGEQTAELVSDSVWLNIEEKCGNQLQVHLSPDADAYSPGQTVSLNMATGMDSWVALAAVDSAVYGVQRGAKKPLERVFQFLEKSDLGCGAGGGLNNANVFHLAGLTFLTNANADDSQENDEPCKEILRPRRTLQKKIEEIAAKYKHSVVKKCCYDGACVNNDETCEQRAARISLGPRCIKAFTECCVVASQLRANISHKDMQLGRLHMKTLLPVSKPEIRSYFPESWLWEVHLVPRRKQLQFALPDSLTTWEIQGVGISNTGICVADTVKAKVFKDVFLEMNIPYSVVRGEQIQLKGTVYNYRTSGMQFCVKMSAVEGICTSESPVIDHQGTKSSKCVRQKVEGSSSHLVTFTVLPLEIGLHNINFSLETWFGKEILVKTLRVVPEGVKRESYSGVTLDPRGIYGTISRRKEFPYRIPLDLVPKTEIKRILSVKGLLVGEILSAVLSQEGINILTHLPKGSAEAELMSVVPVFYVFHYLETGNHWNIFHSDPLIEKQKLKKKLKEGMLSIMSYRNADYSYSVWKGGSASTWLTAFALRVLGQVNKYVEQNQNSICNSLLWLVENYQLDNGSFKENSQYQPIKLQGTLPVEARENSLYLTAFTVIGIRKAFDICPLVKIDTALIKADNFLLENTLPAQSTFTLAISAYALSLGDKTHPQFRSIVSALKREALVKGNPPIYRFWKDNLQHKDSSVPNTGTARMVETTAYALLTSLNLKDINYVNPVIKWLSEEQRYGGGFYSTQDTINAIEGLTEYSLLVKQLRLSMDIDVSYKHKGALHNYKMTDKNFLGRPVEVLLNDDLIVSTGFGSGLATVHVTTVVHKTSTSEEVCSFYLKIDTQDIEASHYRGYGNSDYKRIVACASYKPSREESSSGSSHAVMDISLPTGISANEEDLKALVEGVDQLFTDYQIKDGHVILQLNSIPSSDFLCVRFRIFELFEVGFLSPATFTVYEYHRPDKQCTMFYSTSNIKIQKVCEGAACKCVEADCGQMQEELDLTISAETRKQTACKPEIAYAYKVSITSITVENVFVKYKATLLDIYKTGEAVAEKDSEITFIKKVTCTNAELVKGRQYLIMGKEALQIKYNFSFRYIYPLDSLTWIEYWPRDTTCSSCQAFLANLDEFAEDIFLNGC
experiment: Red blood cell (RBC) hemolysis assay, optical, absorbance 412 nm (Example 10, Table 19)
Assay type: cell-based
condition: antibody-sensitized sheep erythrocytes, […] human C5 depleted sera, 0.5 nM purified human C5, absorbance 412 nm; read-out: RBC Hemolysis IC50
// return numeric value only (unit: nM, not printed)

{"columns": ["structure as smiles", "readout unit", "IC50"],
 "data": [
  ["COc1ccc(OC)c(CNC(=O)Nc2ccc(OC)c(OCCCC(C)C)c2)c1", "nM", 680],
  ["COc1ccc(NC(=O)NCc2cccc(O)c2O)cc1OCCCC(C)C", "nM", 8.5],
  ["COc1cc(CCCCN(C)C)c(NC(=O)N[C@@H](CO)c2ccccc2OC)cc1OCCCC(C)C", "nM", 617]
]}

Consider the record given below.
Prompt: Specify measured IC50 for COc1ccc(F)cc1CNC(=O)Nc1ccc(OC)c(OCCCC(C)C)c1 .
Response: 150

---

Reported values of log10 of IC50 for individual entries
target entity: Human C5 (Homo sapiens, UniProt P01031)
Construct: purchased Complement Technology
experiment: Red blood cell (RBC) hemolysis assay, luminescent (Example 13, Table 22); also: 1.5% C5-depleted human serum
Format: cell-based
condition: sheep EA cells, […] C5-depleted human serum, 0.5 nM human C5, 1 hour 37° C., luminescence
Response schema: value (number) is log10 of IC50 in units of nM.

Prompt: Provide only the value of recorded log10 of IC50 for CCCCCOc1cc(N2CCCN(Cc3ccnc4c3ccn4CC(=O)N(C)C3CCN(CC)C3)C2=O)ccc1OC (centres unmarked)
Response: 1.20

Prompt: Write down log10 of IC50 measured for item CCCCCOc1cc(N2CCCN(Cc3ccc(CNC(=O)c4cocn4)cc3OC)C2=O)ccc1OC
Response: 1.36

---

target entity: Human C5 (Homo sapiens, UniProt P01031)
Construct: purchased Complement Technology
experiment: Red blood cell (RBC) hemolysis assay, luminescent (Example 24, Table 29)
Format: cell-based
condition: sheep EA cells, […] C5-depleted human serum, 0.5 nM human C5, 1 hour at 37° C., luminescence (Table 29)
pIC50: −log10 of the molar value.
Decide using pIC50: a value greater than or equal to 7 is Yes, a smaller one is No.

# count of solved cases: 5
{"columns": ["compound", "target entity", "label"],
 "data": [
  ["CCCCCOc1cc(N2CC(C(=O)NC)CN(Cc3cc(F)ccc3OC)C2=O)ccc1OC (centres unmarked)", "Human C5 (Homo sapiens, UniProt P01031)", "Yes"],
  ["CCCCCOc1cc(N2CC(C)CN(Cc3cc(F)ccc3OC)C2=O)ccc1OC (centres unmarked)", "Human C5 (Homo sapiens, UniProt P01031)", "Yes"],
  ["CCCCCOc1cc(N2CC3(CC3)CN(Cc3ccccc3OC)C2=O)ccc1OC", "Human C5 (Homo sapiens, UniProt P01031)", "Yes"],
  ["CCCCCOc1cc(N2CC(O)CN(Cc3cc(F)ccc3OC)C2=O)ccc1OC (centres unmarked)", "Human C5 (Homo sapiens, UniProt P01031)", "Yes"],
  ["CCCCCOc1cc(N2CC[C@H](C)N(Cc3cccc4c3ccn4CC(=O)NC3CC(O)C3)C2=O)ccc1OC (some centres unmarked)", "Human C5 (Homo sapiens, UniProt P01031)", "Yes"]
]}

Prompt: // inclusive: pIC50 at least 7? input: CCCCCOc1cc(N2CC3(CN(Cc4cc(F)ccc4OC)C2=O)CN(S(=O)(=O)c2ccc(C)cc2)C3)ccc1OC
Response: No

Prompt: Check if pIC50 >= 7 (inclusive). Item: CCCCCOc1cc(N2CC(C(=O)N(C)C)CN(Cc3cc(F)ccc3OC)C2=O)ccc1OC (centres unmarked)
Response: Yes

Prompt: Given CCCCCOc1cc(N2CC(CNC(=O)c3ccccn3)CN(Cc3cc(F)ccc3OC)C2=O)ccc1OC (centres unmarked) , state whether its pIC50 is at least 7.
Response: Yes

Prompt: In plain terms: is recorded pIC50 at least 7 for CCCCCOc1cc(N2CC(CO)CN(Cc3cc(F)ccc3OC)C2=O)ccc1OC (centres unmarked) [SC0016(2)] ?
Response: Yes

Prompt: Is it the case that CCCCCOc1cc(N2CC(Cn3cc4ccccc4n3)CN(Cc3cc(F)ccc3OC)C2=O)ccc1OC (centres unmarked) has pIC50 reaching or exceeding 7?
Response: No

Prompt: Textbook exercise: given the entry CCCCCOc1cc(N2C(=O)CN(Cc3cc(F)ccc3OC)C2=O)ccc1OC , state whether its pIC50 is greater than or equal to 7.
Response: No

Prompt: Please tell me: is the compound CCCCCOc1cc(N2CC(COCC(=O)N(C)C)CN(Cc3cc(F)ccc3OC)C2=O)ccc1OC (centres unmarked) at or over 7 in terms of pIC50?
Response: Yes

---

target entity: UniProtKB P01031
experiment: Surface plasmon resonance (SPR), immobilized human C5, 37° C. (Example 18, Table 24)
Assay type: binding
condition: lowest value obtained where a range of concentrations was analyzed
// reported Kd per item
Please state the value followed by its unit.

Worked examples, 7 compounds total:
{"columns": ["structure as smiles", "Kd"],
 "data": [
  ["COc1cc(CNC(=O)OC(C)(C)C)ccc1CN1CCCN(c2ccc(OC)c(OCCCC3CC3)c2)C1=O", "0.041 nM"],
  ["CCCCCOc1cc(N2CCCN(Cc3ccnc4c3c(I)cn4CC(=O)N(C)C)C2=O)ccc1OC", "0.053 nM"],
  ["CCCCCOc1cc(N2CCCN(Cc3cccc4c3ccn4[C@H]3CCN(C)C3=O)C2=O)ccc1OC", "1.11 nM"],
  ["COc1cc(CN)ccc1CN1CCCN(c2ccc(OC)c(OCCCC3CC3)c2)C1=O", "1.32 nM"],
  ["COc1cc(CC(=O)N(C)C)ccc1CN1CCCN(c2ccc(OC)c(OCCCCC(C)(C)C)c2)C1=O", "0.094 nM"],
  ["CCCCCOc1cc(N2CCCN(Cc3ccnc4c3c(Cl)cn4CC(=O)N(C)CC#N)C2=O)ccc1OC", "0.322 nM"],
  ["CCCCCOc1cc(N2CCCN(Cc3ccnc4c3c(Cl)cn4CC(=O)N3CCC3)C2=O)ccc1OC", "0.054 nM"]
]}

// below: Kd requested for another compound
Prompt: Kindly indicate its recorded Kd. Item: CCCCCOc1cc(N2CCCN(Cc3ccnc4c3c(Cl)cn4CC(=O)N3CCO[C@H](CN(C)C)C3)C2=O)ccc1OC
Response: 0.056 nM

---

experiment: Kinetic solubility in PBS pH 7.4, HPLC-UV (Example 21, Table 27)
Assay type: physicochemical
condition: phosphate buffered saline, aqueous buffer, kinetic from dmso stock, 0.5 M PBS, shaken minimum 24 h at approximately 25° C., HPLC-UV 270 nm
property: log10 of solubility kinetic (log10 of the value in µM)
// units: µM (pre-log); metric: solubility kinetic; scale: log10

Examples with answers:
{"columns": ["molecule", "log10 of solubility kinetic"],
 "data": [
  ["CCCCCOc1cc(N2CCCN(Cc3ccc(CC(=O)NC4CCN(C(C)=O)C4)cc3OC)C2=O)ccc1OC (stereo not shown)", 2.47],
  ["CCCCCOc1cc(N2CCCN(Cc3ccc(Cc4nnnn4C)cc3OC)C2=O)ccc1OC", 2.05],
  ["COc1cc(CC(=O)N2CCO[C@H](CN(C)C)C2)ccc1CN1C(=O)N(c2ccc(OC)c(OCCCC3CC3)c2)CC[C@@H]1C", 2.42]
]}

Prompt: Specify reported log10 of solubility kinetic for the molecule shown: CCCCCOc1cc(N2CC[C@H](C)N(Cc3cccc4c3c(C)cn4CC(=O)N(C)C3CCN(CC)C3)C2=O)ccc1OC (stereo partly shown)
Response: 2.60

Prompt: Please supply the value of reported log10 of solubility kinetic for the item COc1cc(CNC(C)=O)ccc1CN1CCCN(c2ccc(OC)c(OCCCCC3CC3)c2)C1=O
Response: 2.28

Prompt: Look up log10 of solubility kinetic of CCCCCOc1cc(N2CCCN(Cc3ccnc4c3c(Cl)cn4CC(=O)N3CCC3)C2=O)ccc1OC and report it.
Response: 1.49

Prompt: Report log10 of solubility kinetic for CCCCCOc1cc(N2CCCN(Cc3ccnc4c3c(Cl)cn4CC(=O)N3CC[C@H](N(C)C)C3)C2=O)ccc1OC
Response: 2.62

Prompt: In one line, give reported log10 of solubility kinetic of the entry CCCCCOc1cc(N2CCCN(Cc3cccc4c3c(Br)cn4CC(=O)N(C)C)C2=O)ccc1OC .
Response: 2.41

---

experiment: Kinetic solubility in PBS pH 7.4, HPLC-UV (Example 21, Table 27)
Assay type: physicochemical
condition: phosphate buffered saline, aqueous buffer, kinetic from dmso stock, 0.5 M PBS, shaken minimum 24 h at approximately 25° C., HPLC-UV 270 nm
Label TRUE for high-side solubility kinetic (at or above 300 µM) and FALSE for low-side solubility kinetic (below it).

Solved cases (5 shown):
{"columns": ["molecule", "label"],
 "data": [
  ["COc1cc(CCNC2CCN(C)C2=O)ccc1CN1CCCN(c2ccc(OC)c(OCCCC3CC3)c2)C1=O (stereo not drawn)", "TRUE"],
  ["CCCCCOc1cc(N2CC[C@H](C)N(Cc3cccc4c3ccn4CC(=O)N(C)C)C2=O)ccc1OC", "FALSE"],
  ["COc1cc(CC(=O)N(C)C)ccc1CN1CCCN(c2ccc(OC)c(OCCC[C@H]3C[C@H]3C)c2)C1=O (racemic)", "FALSE"],
  ["CCCCCOc1cc(N2CCCN(Cc3ccnc4c3c(Cl)cn4CC(=O)NC3(C)COC3)C2=O)ccc1OC", "FALSE"],
  ["CCCCCOc1cc(N2CCCN(Cc3ccnc4c3c(Cl)cn4CC(=O)N(C)CC#N)C2=O)ccc1OC", "FALSE"]
]}

Prompt: Is the recorded value of solubility kinetic equal to or greater than 300 µM for this molecule? CCCCCOc1cc(N2CC[C@H](C)N(Cc3cccc4c3ccn4CC(=O)N3CCCC3)C2=O)ccc1OC
Response: FALSE
